STUDY_SYSTEM: vanilloid receptor (VR1), human VR1 gene (Homo sapiens)
Construct: expressed in transfected cells; host or cells: CHO K1 cells (ECACC), stably transfected
ASSAY_NOTES: FLIPR Ca2+ influx assay on CHO K1 cells transfected with the VR1 gene, capsaicin stimulus (Pharmacological method II)
Assay type: cell-based
STATED_CONDITIONS: CHO-K1, compound 0.1 μM, species column unclear (taken as human), read-out: Capsaicin: inhibition (in percent) @ 0.1 μM
MEASUREMENT_TYPE: inhibition at 0.1 µM (%)
Report only the number, with the unit % understood.

{"MOLECULE": "CC(=O)Nc1nc2ccc(C(C)C(=O)NCc3ccc(C(F)(F)F)nc3N3CCC(C)CC3)cc2s1 (stereo not drawn) [Example 41]", "inhibition at 0.1 µM / %": 5}

Hi! What's the reported inhibition at 0.1 µM for CC1CCN(c2nc(C(F)(F)F)ccc2CNC(=O)C(C)c2ccc3nc(NS(C)(=O)=O)sc3c2)CC1 (stereo not drawn) [Example 39] on vanilloid receptor (VR1), human VR1 gene (Homo sapiens)?
0

Try CC1CCN(c2nc(C(F)(F)F)ccc2CNC(=O)C(C)c2ccc3nc(NC(=O)OC(C)(C)C)sc3c2)CC1 (stereo not drawn) [Example 40] next.
0

Try CC1CCN(c2nc(C(F)(F)F)ccc2CNC(=O)C(C)c2ccc3nc(N)sc3c2)CC1 (stereo not drawn) [Example 52] next.
5

Try CC(C(=O)NCc1ccc(C(C)(C)C)cc1)c1ccc2nc(N)sc2c1 (stereo not drawn) [Example 51] next.
3

Try CC(C(=O)NCc1ccc(C(C)(C)C)cc1)c1ccc2nc(NC(=O)OC(C)(C)C)sc2c1 (stereo not drawn) [Example 50] next.
0

====

STUDY_SYSTEM: VR1/TRPV1 receptor (Homo sapiens, UniProt Q8NER1)
Sequence (Q8NER1 whole entry): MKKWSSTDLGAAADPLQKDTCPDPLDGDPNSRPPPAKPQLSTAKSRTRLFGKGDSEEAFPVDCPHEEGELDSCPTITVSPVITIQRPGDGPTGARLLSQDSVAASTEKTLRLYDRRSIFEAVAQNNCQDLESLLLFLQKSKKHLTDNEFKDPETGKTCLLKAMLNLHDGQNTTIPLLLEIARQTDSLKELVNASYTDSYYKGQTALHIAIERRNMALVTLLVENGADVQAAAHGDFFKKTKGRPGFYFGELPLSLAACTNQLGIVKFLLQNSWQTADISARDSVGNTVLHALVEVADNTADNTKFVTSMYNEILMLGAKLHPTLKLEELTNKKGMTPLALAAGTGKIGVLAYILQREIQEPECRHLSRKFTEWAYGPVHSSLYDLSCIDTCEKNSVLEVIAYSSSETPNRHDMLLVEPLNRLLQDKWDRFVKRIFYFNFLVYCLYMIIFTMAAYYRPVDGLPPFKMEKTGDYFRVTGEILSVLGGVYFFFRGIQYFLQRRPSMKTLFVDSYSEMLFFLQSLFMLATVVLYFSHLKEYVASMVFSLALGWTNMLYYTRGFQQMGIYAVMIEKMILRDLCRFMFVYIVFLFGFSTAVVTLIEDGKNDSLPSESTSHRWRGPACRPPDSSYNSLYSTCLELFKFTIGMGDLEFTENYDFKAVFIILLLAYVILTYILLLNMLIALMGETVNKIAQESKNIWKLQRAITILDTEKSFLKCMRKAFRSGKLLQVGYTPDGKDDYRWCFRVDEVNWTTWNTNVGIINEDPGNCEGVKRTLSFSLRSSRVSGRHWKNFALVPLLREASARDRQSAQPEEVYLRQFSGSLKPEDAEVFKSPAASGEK
ASSAY_NOTES: Inhibition of human VR1/TRPV1 following pH-stimulus
Type: cell-based
STATED_CONDITIONS: compound 5 μM, read-out: IC50 (Human) following pH-stimulus: inhibition (in percent) @ 5 μM
Quick rule for you: inhibition at 5 µM at 20% or higher means Met, lower means Not met.

Worked examples follow.
{"MOLECULE": "CC1CCN(c2nc(C(C)(C)C)ccc2CNC(=O)C(C)c2ccc3nc(N)sc3c2)CC1 (stereo not drawn)", "CATEGORY_LABEL": "Not met"}
{"MOLECULE": "CC1CCN(c2nc(C(F)(F)F)ccc2CNC(=O)C(C)c2ccc3nc(NC(=O)OC(C)(C)C)sc3c2)CC1 (stereo not drawn)", "CATEGORY_LABEL": "Met"}
{"MOLECULE": "CC(C(=O)NCc1ccc(C(C)(C)C)cc1)c1ccc2nc(NS(C)(=O)=O)sc2c1 (stereo not drawn)", "CATEGORY_LABEL": "Not met"}

Reported inhibition at 5 µM reaches at least 20% for CC(C(=O)NCc1ccc(C(C)(C)C)cc1)c1ccc2nc(NC(=O)OC(C)(C)C)sc2c1 (stereo not drawn) ?
Met

Try CC(C(=O)NCc1ccc(C(C)(C)C)cc1)c1ccc2nc(N)sc2c1 (stereo not drawn) next.
Met

Try CC1CCN(c2nc(C(C)(C)C)ccc2CNC(=O)C(C)c2ccc3nc(NC(=O)OC(C)(C)C)sc3c2)CC1 (stereo not drawn) next.
Met

====

STUDY_SYSTEM: vanilloid receptor (VR1), human VR1 gene (Homo sapiens, UniProt Q8NER1)
Sequence (Q8NER1 whole entry): as the sequence (Q8NER1 whole entry) above
ASSAY_NOTES: FLIPR Ca2+ influx assay on CHO K1 cells transfected with the VR1 gene, capsaicin stimulus (Pharmacological method II)
STATED_CONDITIONS: human, Ki by Cheng-Prusoff, ne = no effect, no response observed
Some molecules, each annotated with its measured pKi.
pKi field: float, defined as -log10 of concentration (mol/L).

Reference set, count: 7
{"MOLECULE": "O=C(Cc1ccc2c(c1)OCCO2)NCc1ccc(C(F)(F)F)nc1SC1CCCCC1", "pKi": 8.46}
{"MOLECULE": "CC1CCN(c2nc(C(F)(F)F)ccc2CNC(=O)C(C)c2ccc3[nH]cnc3c2)CC1 (centres unmarked)", "pKi": 8.15}
{"MOLECULE": "CC(C(=O)NCc1ccc(C(C)(C)C)cc1)c1ccc2c(c1)OCCO2 (centres unmarked)", "pKi": 5.97}
{"MOLECULE": "COc1cc(C(C)C(=O)NCc2ccc(C(C)(C)C)cc2)cc2ncoc12 (centres unmarked)", "pKi": 5.66}
{"MOLECULE": "CC(C(=O)NCc1ccc(C(C)(C)C)cc1)c1ccc2nc(NS(C)(=O)=O)sc2c1 (centres unmarked)", "pKi": 7.48}
{"MOLECULE": "CC(C(=O)NCc1ccc(C(C)(C)C)cc1)c1ccc2ocnc2c1 (centres unmarked)", "pKi": 6.24}
{"MOLECULE": "CC1CCN(c2nc(C(F)(F)F)ccc2CNC(=O)Cc2ccc3c(c2)OCCO3)CC1", "pKi": 7.56}

Hi! What's the reported pKi for CC1CCN(c2nc(C(C)(C)C)ccc2CNC(=O)C(C)c2ccc3nc(N)sc3c2)CC1 (centres unmarked) on vanilloid receptor (VR1), human VR1 gene (Homo sapiens, UniProt Q8NER1)?
7.73

====

STUDY_SYSTEM: vanilloid receptor 1 (VR1/TRPV1) of the rat species (Rattus norvegicus)
Construct: The spinal column is removed from decapitated rats; endogenous in cells
Sequence (O35433 whole entry): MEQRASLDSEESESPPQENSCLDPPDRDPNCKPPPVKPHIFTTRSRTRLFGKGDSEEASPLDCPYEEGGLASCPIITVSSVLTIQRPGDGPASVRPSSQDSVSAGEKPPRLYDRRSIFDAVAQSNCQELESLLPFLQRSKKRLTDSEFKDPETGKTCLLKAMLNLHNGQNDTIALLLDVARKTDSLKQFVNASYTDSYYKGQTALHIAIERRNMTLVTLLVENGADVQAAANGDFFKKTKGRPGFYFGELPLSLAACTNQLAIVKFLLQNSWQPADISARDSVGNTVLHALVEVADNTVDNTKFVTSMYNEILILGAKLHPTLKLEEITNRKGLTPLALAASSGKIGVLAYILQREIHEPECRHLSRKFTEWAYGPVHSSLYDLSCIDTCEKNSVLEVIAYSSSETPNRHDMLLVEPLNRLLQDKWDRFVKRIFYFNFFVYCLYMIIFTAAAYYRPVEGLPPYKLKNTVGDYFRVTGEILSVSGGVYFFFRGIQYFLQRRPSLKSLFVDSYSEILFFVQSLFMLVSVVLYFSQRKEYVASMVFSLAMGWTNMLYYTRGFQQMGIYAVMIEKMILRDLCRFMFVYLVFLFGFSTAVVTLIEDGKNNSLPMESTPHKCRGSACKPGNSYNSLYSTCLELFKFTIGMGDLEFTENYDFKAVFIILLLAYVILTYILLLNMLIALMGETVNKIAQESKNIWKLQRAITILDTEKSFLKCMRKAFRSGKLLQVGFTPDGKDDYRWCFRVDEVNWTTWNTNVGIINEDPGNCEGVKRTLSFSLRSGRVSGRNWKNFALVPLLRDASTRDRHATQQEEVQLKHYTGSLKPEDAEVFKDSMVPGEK
ASSAY_NOTES: FLIPR Ca2+ influx assay on rat dorsal root ganglia cells, capsaicin stimulus (Pharmacological method I)
STATED_CONDITIONS: Ki by Cheng-Prusoff
MEASUREMENT_TYPE: Ki (nM)
Report only the number, with the unit nM understood.

Reference set, count: 2
{"MOLECULE": "CC1CCN(c2nc(C(F)(F)F)ccc2CNC(=O)C(C)c2ccc3c(c2)OCO3)CC1 (stereo not drawn)", "VALUE": 45.8}
{"MOLECULE": "CC1CCN(c2nc(C(F)(F)F)ccc2CNC(=O)Cc2ccc3c(c2)OCCO3)CC1", "VALUE": 60}

Would you kindly look at the next entry?
Hi! What's the reported Ki for O=C(Cc1ccc2c(c1)OCCO2)NCc1ccc(C(F)(F)F)nc1SC1CCCCC1 on vanilloid receptor 1 (VR1/TRPV1) of the rat species (Rattus norvegicus)?
5.7

====

STUDY_SYSTEM: VR1/TRPV1 receptor (Homo sapiens)
ASSAY_NOTES: Inhibition of human VR1/TRPV1 following pH-stimulus
Type: cell-based
STATED_CONDITIONS: ne = no effect, no response observed
MEASUREMENT_TYPE: IC50 (Human) following pH-stimulus

Reference set, count: 5
{"MOLECULE": "CC(C(=O)NCc1ccc(C(C)(C)C)cc1)c1ccc2c(c1)OCCO2 (stereo not drawn) [Example 9]", "IC50 (Human) following pH-stimulus": "Ne"}
{"MOLECULE": "CC1CCN(c2nc(C(F)(F)F)ccc2CNC(=O)Cc2ccc3c(c2)OCCO3)CC1 [Example 58]", "IC50 (Human) following pH-stimulus": "ne"}
{"MOLECULE": "CC1CCN(c2nc(C(F)(F)F)ccc2CNC(=O)C(C)c2ccc3nc(N)sc3c2)CC1 (stereo not drawn) [Example 52]", "IC50 (Human) following pH-stimulus": "Ne"}
{"MOLECULE": "CCCCOc1nc(C(C)(C)C)ccc1CNC(=O)C(C)c1ccc2[nH]cnc2c1 (stereo not drawn) [Example 23]", "IC50 (Human) following pH-stimulus": "Ne"}
{"MOLECULE": "CC(C(=O)NCc1ccc(C(C)(C)C)cc1)c1ccc2c(c1)OCCN2 (stereo not drawn) [Example 20]", "IC50 (Human) following pH-stimulus": "Ne"}

Need IC50 (Human) following pH-stimulus of CC1CCN(c2nc(C(F)(F)F)ccc2CNC(=O)C(C)c2ccc3nc(N)sc3c2)CC1 (stereo not drawn) [Example 38] , thanks.
Ne
